Test system: E. Coli (G-) strain ATCC 25922
Test: Antimicrobial growth inhibition (CO-ADD), E. coli
Assay type: cell-based, Escherichia coli
Settings: 32 µg/mL, duplicate (n = 2) values
Measured Metric: % inhibition E. coli (%)
One number for each entry, in %.

Please review the entries below; each comes with its answer.
* COC1=C(Br)[C@H](O)[C@@]2(C=C1Br)CC(C(=O)NCCCOc1c(Br)cc(CCN)cc1Br)=NO2 [Compound 11, araplysillin I] | 8.5
* COC(=O)NCCCCNC(=O)C1=NO[C@]2(C=C(Br)C(OC)=C(Br)[C@@H]2O)C1 [Compound 12, subereamolline C] | 6.4
* COC1(OC)C(Br)=CC(O)(CC#N)C=C1Br [Compound 7] | 6.2
* COc1c(Br)cc(CC#N)c(O)c1Br [Compound 8] | 16.9
* COC1(OC)C(Br)=CC(O)(CC(N)=O)C=C1Br [Compound 6] | 15.6
* COC1=C(Br)[C@H](O)[C@](O)(CC#N)C=C1Br [Compound 1, (+)-aeroplysinin-1] | 95.2

Now let's try a different one.
Using the record for COC1=C(Br)[C@H](O)[C@@]2(C=C1Br)CC(C(=O)NCCCOc1c(Br)cc(CCNC(=O)C3=NO[C@]4(C=C(Br)C(OC)=C(Br)[C@@H]4O)C3)cc1Br)=NO2 [Compound 5, 11,17-deoxyfistularin-3] , state its measured % inhibition E. coli. 9.5

###

System: MRSA (G+) strain ATCC 43300
Test: Antimicrobial growth inhibition (CO-ADD), MRSA
Type: cell-based, Staphylococcus aureus
Conditions: 32 µg/mL, duplicate (n = 2) values
Provide the reported % inhibition MRSA of each item.
Numbers only, in %.

Please review the entries below; each comes with its answer.
• COC1=C(Br)[C@H](O)[C@](O)(CC#N)C=C1Br [Compound 1, (+)-aeroplysinin-1] = 96.7
• COc1c(Br)cc(CC#N)c(O)c1Br = 8.5
• COC1=C(Br)[C@H](O)[C@@]2(C=C1Br)CC(C(=O)NCCCOc1c(Br)cc(CCNC(=O)C3=NO[C@]4(C=C(Br)C(OC)=C(Br)[C@@H]4O)C3)cc1Br)=NO2 = 19.8

Now let's try a different one.
Using the record for COC1=C(Br)[C@H](O)[C@@]2(C=C1Br)CC(C(=O)NCCCOc1c(Br)cc(CCN)cc1Br)=NO2 , state its measured % inhibition MRSA. 5.7

###

System: C. neoformans var. grubii strain ATCC 208821
Test: Antimicrobial growth inhibition (CO-ADD), C. neoformans
Format: cell-based, Cryptococcus neoformans
Conditions: 32 µg/mL, duplicate (n = 2) values
Provide the reported % inhibition C. neoformans of each item.
One number for each entry, in %.

// each listed compound needs a value for % inhibition C. neoformans
1. COC(=O)Cc1c(O)cc(Br)c(O)c1Br
2. COC1=C(Br)[C@H](O)[C@@]2(C=C1Br)CC(C(=O)NCCCCCNC(=O)C1=NO[C@]3(C=C(Br)C(OC)=C(Br)[C@@H]3O)C1)=NO2
3. NC(=O)Cc1c(O)cc(Br)c(O)c1Br
4. COC1=C(Br)[C@H](O)[C@@]2(C=C1Br)CC(C(=O)NCCCOc1c(Br)cc(CCN)cc1Br)=NO2

1: 8.5; 2: 16.1; 3: 11.9; 4: 7.8
